Target: ACE2-SIT1 complex (Homo sapiens)
Construct: co-expressed in HEK293T cells for currents; purified complex for cryo-EM (two protomers, each ACE2 plus SIT1); with Angiotensin-converting enzyme 2
Test: Pro-induced transport current in HEK293T cells co-expressing SIT1 and ACE2
pEC50: −log10 of the molar value.
recorded metric: pEC50

q: Give ACE2-SIT1 complex (Homo sapiens) pEC50 for O=C(O)[C@@H]1CCCN1 [Pro]
a: ~2.60

* * *

Biological target: ACE2-SIT1 complex (Homo sapiens, UniProt Q9NP91, Q247A)
Construct: co-expressed in HEK293T cells for currents; purified complex for cryo-EM (two protomers, each ACE2 plus SIT1); with Angiotensin-converting enzyme 2
Sequence (Q9NP91 whole entry Q247A): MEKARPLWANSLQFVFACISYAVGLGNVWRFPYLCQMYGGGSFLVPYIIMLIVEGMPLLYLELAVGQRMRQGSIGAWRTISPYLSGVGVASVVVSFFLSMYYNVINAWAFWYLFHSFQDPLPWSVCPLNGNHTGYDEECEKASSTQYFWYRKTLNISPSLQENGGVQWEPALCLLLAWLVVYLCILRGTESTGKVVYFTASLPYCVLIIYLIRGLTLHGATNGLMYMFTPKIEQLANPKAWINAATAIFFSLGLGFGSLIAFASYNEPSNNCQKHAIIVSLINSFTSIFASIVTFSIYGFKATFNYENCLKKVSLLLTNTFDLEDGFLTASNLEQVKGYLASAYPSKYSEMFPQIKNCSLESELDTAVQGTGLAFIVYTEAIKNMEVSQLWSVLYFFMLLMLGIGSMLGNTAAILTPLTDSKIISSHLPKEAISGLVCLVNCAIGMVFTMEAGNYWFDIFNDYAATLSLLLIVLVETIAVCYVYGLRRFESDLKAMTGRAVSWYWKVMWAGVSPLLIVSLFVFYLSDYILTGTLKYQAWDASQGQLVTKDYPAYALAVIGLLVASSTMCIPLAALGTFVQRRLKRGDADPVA
Sequence (Q9BYF1 18-805 partner): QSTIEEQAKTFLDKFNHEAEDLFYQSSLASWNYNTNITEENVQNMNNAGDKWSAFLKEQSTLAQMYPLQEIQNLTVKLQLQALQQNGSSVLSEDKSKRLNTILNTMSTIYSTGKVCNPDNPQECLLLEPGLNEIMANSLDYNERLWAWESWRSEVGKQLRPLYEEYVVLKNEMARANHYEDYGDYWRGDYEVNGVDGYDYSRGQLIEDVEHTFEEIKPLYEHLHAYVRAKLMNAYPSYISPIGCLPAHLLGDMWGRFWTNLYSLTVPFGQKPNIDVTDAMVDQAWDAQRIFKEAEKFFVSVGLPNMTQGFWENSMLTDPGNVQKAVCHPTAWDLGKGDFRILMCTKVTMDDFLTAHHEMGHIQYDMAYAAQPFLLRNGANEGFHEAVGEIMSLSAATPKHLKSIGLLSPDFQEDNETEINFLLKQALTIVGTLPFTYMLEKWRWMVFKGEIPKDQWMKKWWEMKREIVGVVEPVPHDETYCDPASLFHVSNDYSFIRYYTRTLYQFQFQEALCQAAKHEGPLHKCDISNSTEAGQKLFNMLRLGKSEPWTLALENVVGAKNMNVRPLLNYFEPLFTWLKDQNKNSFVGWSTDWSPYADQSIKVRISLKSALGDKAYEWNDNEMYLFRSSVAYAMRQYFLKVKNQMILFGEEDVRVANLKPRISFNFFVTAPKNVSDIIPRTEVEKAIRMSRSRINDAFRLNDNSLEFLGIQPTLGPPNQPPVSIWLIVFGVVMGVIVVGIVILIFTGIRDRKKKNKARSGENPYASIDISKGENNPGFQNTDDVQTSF
Assay: Pro-induced transport current in HEK293T cells co-expressing SIT1 and ACE2
recorded metric: EC50

q: Observed EC50 on ACE2-SIT1 complex (Homo sapiens, UniProt Q9NP91, Q247A) for O=C(O)[C@@H]1CCCN1 , please.
a: ~70 µM
